- Target: T1, recombinant purified human RGM A (R&D Systems Cat# 2459-RM) (human) (UniProt Q96B86)
- T1 sequence: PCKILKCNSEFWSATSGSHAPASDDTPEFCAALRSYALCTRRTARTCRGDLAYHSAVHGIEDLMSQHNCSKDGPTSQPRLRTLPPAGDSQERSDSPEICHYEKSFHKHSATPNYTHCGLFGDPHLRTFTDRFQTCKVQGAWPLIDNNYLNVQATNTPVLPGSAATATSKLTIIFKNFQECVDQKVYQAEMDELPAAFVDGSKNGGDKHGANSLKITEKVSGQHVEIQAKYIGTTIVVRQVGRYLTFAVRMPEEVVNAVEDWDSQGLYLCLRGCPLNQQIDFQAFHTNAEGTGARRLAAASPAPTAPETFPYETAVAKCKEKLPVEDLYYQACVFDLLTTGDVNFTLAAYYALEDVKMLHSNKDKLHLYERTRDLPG
- Method Description: SPR (Biacore 3000), antibody captured by anti-human IgG Fc, hRGMA in solution, 25 °C
I'd be grateful if you could share measured kon for these entries.
Answers are plain numbers, in M⁻¹ s⁻¹.

Please review the entries below; each comes with its answer.
Problem: # get_value(readout='kon', item= h5F9.21 (antibody, human IgG1, V domains shown) VH: EVQLVESGGGVVQPGRSLRLSCAASGFTFSNYGMNWIRQAPGKGLEWIGMIYYDSSEKHYADSVKGRFTISRDNSKNTLYLQMNSLRAEDTAVYYCAKGTTPDYWGQGTMVTVSS VL: DVVLTQSPLSLPVTLGQPASISCRSSQSLEYSDGYTFLEWFLQKPGQSPQLLIYEVSNRFSGVPDRFSGSGSGTDFTLKISRVEAEDVGVYYCFQATHDPLTFGQGTKLEIKR )
Result: 355000

Problem: # get_value(readout='kon', item= chimeric 5F9 (antibody, V domains shown) VH: EVQLVESGGGLVQPGSSLKLSCVASGFTFSNYGMNWIRQAPKKGLEWIGMIYYDSSEKHYADSVKGRFTISRDNSKNTLYLEMNSLRSEDTAIYYCAKGTTPDYWGQGVMVTVSS VL: DVVLTQTPVSLSVTLGDQASMSCRSSQSLEYSDGYTFLEWFLQKPGQSPQLLIYEVSNRFSGVPDRFIGSGSGTDFTLKISRVEPEDLGVYYCFQATHDPLTFGSGTKLEIKR )
Result: 765000

Kindly consider the entry below.
Problem: # get_value(readout='kon', item= h5F9.23 (antibody, human IgG1, V domains shown) VH: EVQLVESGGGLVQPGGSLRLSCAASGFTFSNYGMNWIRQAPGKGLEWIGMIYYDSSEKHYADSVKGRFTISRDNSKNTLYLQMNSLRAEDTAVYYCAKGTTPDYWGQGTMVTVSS VL: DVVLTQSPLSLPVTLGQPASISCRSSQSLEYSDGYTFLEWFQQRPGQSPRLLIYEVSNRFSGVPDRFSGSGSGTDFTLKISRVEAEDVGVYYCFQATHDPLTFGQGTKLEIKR )
Result: 507000
